This section lists Ki readings for Mu-type opioid receptor (Mus musculus).

Give a short answer stating reported Ki for "CN(C)CCc1nnc(-c2ccc(C(C)(C)C)cc2)n1-c1cccc(O)c1" .
> 10 µM

Give a short answer stating reported Ki for "CC(C)(C)c1cccc(-c2nncn2-c2cccc(O)c2)c1" .
0.85 µM

Give a short answer stating reported Ki for "Oc1cccc(-n2cnnc2-c2ccc3ccccc3c2)c1" .
> 10 µM

Give a short answer stating reported Ki for "CN(C)c1nnc(-c2cccc(-c3ccccc3)c2)n1-c1cccc(O)c1" .
> 10 µM

Give a short answer stating reported Ki for "Oc1cccc(-n2cnnc2-c2ccc(-c3ccccc3)cc2)c1" .
> 10 µM

Give a short answer stating reported Ki for "COc1cccc(-n2c(-c3ccc(C(C)(C)C)cc3)nnc2N(C)C)c1" .
> 10 µM

###

experimentalSystem: Delta-type opioid receptor (Mus musculus) (UniProt P32300)
Sequence (P32300 whole entry, looked up): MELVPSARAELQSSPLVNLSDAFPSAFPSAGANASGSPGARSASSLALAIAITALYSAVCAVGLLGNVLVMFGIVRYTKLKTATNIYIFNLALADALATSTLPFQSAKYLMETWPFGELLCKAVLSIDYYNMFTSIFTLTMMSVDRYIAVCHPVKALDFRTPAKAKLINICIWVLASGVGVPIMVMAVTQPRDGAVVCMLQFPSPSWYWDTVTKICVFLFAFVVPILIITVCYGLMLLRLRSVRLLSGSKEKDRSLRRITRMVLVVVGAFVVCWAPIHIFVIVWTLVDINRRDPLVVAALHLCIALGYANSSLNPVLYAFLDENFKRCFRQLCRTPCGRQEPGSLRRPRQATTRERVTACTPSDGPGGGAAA
methodDescription: Inhibition of (-)-[9-3H]bremazocine binding to delta opioid receptor expressed in HEK293 cells
With a cut-off of 0.9 µM, any Ki strictly below it is called Yes; any Ki meeting it or above is called No.

Hi there! Is Ki for "CN(C)Cc1nnc(-c2cccc(C(C)(C)C)c2)n1-c1cccc(O)c1" below 0.9 µM, do you know?
No

Hi there! Is Ki for "CN(C)c1nnc(-c2cccc(-c3ccccc3)c2)n1-c1cccc(O)c1" below 0.9 µM, do you know?
Yes

Hi there! Is Ki for "CC(C)(C)c1cccc(-c2nncn2-c2cccc(O)c2)c1" below 0.9 µM, do you know?
Yes

Hi there! Is Ki for "CN(C)c1nnc(-c2ccc(C(C)(C)C)cc2)n1-c1ccc(O)cc1" below 0.9 µM, do you know?
No

Hi there! Is Ki for "CN1CCN(c2nnc(-c3ccc(C(C)(C)C)cc3)n2-c2cccc(O)c2)CC1" below 0.9 µM, do you know?
No

Hi there! Is Ki for "Oc1cccc(-n2cnnc2-c2ccc3ccccc3c2)c1" below 0.9 µM, do you know?
No

Hi there! Is Ki for "CN(C)c1nnc(-c2cccc(C(C)(C)C)c2)n1-c1cccc(O)c1" below 0.9 µM, do you know?
No

Hi there! Is Ki for "COc1cccc(-n2c(-c3ccc(C(C)(C)C)cc3)nnc2N(C)C)c1" below 0.9 µM, do you know?
No

Hi there! Is Ki for "Oc1cccc(-n2cnnc2-c2ccc(-c3ccccc3)cc2)c1" below 0.9 µM, do you know?
No

Hi there! Is Ki for "CN(C)c1nnc(-c2ccc(-c3ccccc3)cc2)n1-c1cccc(O)c1" below 0.9 µM, do you know?
Yes

Hi there! Is Ki for "CN(C)c1nnc(-c2ccc3ccccc3c2)n1-c1cccc(O)c1" below 0.9 µM, do you know?
Yes

Hi there! Is Ki for "CN(C)c1nnc(-c2ccc(C(C)(C)C)cc2)n1-c1cccc(O)c1" below 0.9 µM, do you know?
Yes

Hi there! Is Ki for "CC(C)(C)c1ccc(-c2nncn2-c2cccc(O)c2)cc1" below 0.9 µM, do you know?
No

###

experimentalSystem: Mu-type opioid receptor (Mus musculus) (UniProt P42866)
Sequence (P42866 whole entry, looked up): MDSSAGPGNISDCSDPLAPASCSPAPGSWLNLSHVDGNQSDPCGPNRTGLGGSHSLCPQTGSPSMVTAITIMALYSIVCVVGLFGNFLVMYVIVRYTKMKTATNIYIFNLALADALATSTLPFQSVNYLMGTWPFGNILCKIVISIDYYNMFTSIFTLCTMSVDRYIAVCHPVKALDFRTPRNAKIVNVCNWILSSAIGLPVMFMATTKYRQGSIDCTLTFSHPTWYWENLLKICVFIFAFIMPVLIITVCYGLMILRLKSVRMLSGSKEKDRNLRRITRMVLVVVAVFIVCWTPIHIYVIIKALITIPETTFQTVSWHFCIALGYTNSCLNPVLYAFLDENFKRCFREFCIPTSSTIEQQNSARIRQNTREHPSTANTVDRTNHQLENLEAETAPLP
methodDescription: Inhibition of (-)-[9-3H]bremazocine binding to mu opioid receptor at 10 uM
Outcome: MET for inhibition of at least 20%; NOT MET for anything lower.

Reported inhibition reaches at least 20% for "CN(C)c1nnc(-c2ccc(C(C)(C)C)cc2)n1-c1cccc(O)c1" ?
MET

Reported inhibition reaches at least 20% for "CN(C)c1nnc(-c2ccc(-c3ccccc3)cc2)n1-c1cccc(O)c1" ?
NOT MET

Reported inhibition reaches at least 20% for "Oc1cccc(-n2cnnc2-c2ccc(-c3ccccc3)cc2)c1" ?
MET

Reported inhibition reaches at least 20% for "COc1cccc(-n2cnnc2-c2ccc(C(C)(C)C)cc2)c1" ?
NOT MET

Reported inhibition reaches at least 20% for "CN1CCN(c2nnc(-c3ccc(C(C)(C)C)cc3)n2-c2cccc(O)c2)CC1" ?
NOT MET

Reported inhibition reaches at least 20% for "Oc1cccc(-n2cnnc2-c2ccc3ccccc3c2)c1" ?
MET

Reported inhibition reaches at least 20% for "CN(C)CCc1nnc(-c2ccc(C(C)(C)C)cc2)n1-c1cccc(O)c1" ?
MET

Reported inhibition reaches at least 20% for "CN(C)c1nnc(-c2cccc(C(C)(C)C)c2)n1-c1cccc(O)c1" ?
NOT MET

Reported inhibition reaches at least 20% for "CC(C)(C)c1ccc(-c2nncn2-c2cccc(O)c2)cc1" ?
NOT MET

Reported inhibition reaches at least 20% for "CN(C)c1nnc(-c2cccc(-c3ccccc3)c2)n1-c1cccc(O)c1" ?
MET

Reported inhibition reaches at least 20% for "CN(C)c1nnc(-c2ccc3ccccc3c2)n1-c1cccc(O)c1" ?
MET
